B1: library; numbered along this chain (parent)
chain: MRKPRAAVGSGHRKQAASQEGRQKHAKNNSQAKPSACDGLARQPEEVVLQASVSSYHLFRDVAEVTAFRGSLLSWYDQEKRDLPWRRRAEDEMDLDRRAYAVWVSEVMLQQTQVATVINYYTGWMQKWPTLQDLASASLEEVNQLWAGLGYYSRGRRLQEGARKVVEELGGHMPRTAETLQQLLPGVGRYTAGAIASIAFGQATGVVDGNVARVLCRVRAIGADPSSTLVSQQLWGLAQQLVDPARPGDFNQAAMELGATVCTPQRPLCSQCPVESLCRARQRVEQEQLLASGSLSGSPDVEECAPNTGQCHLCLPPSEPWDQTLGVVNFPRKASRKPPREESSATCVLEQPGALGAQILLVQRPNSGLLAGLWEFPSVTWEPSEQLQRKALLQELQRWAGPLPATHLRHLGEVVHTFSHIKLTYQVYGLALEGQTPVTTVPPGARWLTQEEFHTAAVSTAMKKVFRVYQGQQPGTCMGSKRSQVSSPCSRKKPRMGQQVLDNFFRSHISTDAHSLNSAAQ

- Variants of: B1
- EXPERIMENT_NOTES: 8OG:A repair function score (normalized; synonymous = 0, nonsense = -1) (normalized log-likelihood score); higher = more repair activity (WT-like);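 also: cells sorted at 72 h after reporter transfection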
- MEASUREMENT_CONDITIONS: with 8OG:A DNA repair reporter (GFP) in HEK-293 MUTYH KO cells
For each entry below, report its 8OG:A repair function score value.
Number only, please.

IN: # query: 8OG:A repair function score of entry `Y190W`
OUT: -0.479

IN: # query: 8OG:A repair function score of entry `V62T`
OUT: 0.00595

IN: # query: 8OG:A repair function score of entry `S384A`
OUT: 0.0362

IN: # query: 8OG:A repair function score of entry `P185R`
OUT: -0.264

IN: # query: 8OG:A repair function score of entry `Q484H`
OUT: 0.0028

IN: # query: 8OG:A repair function score of entry `E452I`
OUT: -0.47

IN: # query: 8OG:A repair function score of entry `E79Y`
OUT: -0.00762

IN: # query: 8OG:A repair function score of entry `F200W`
OUT: -0.182

IN: # query: 8OG:A repair function score of entry `R163N`
OUT: -0.164

IN: # query: 8OG:A repair function score of entry `G148A`
OUT: -0.564

IN: # query: 8OG:A repair function score of entry `A115D`
OUT: -0.0868

IN: # query: 8OG:A repair function score of entry `T263E`
OUT: -0.267

IN: # query: 8OG:A repair function score of entry `Y76A`
OUT: -1.05

IN: # query: 8OG:A repair function score of entry `L180G`
OUT: -0.785

IN: # query: 8OG:A repair function score of entry `A245S`
OUT: 0.0557

IN: # query: 8OG:A repair function score of entry `D502N`
OUT: 0.011

IN: # query: 8OG:A repair function score of entry `Q288K`
OUT: -0.0373

IN: # query: 8OG:A repair function score of entry `Q426R`
OUT: -0.143

IN: # query: 8OG:A repair function score of entry `K333F`
OUT: -0.221

IN: # query: 8OG:A repair function score of entry `N210V`
OUT: -0.927

IN: # query: 8OG:A repair function score of entry `R175A`
OUT: -0.0909

IN: # query: 8OG:A repair function score of entry `L72K`
OUT: -1.1

IN: # query: 8OG:A repair function score of entry `M255Y`
OUT: -1.02

IN: # query: 8OG:A repair function score of entry `R213Y`
OUT: -0.997

IN: # query: 8OG:A repair function score of entry `L73G`
OUT: -0.786

IN: # query: 8OG:A repair function score of entry `L360W`
OUT: -1.54

IN: # query: 8OG:A repair function score of entry `L149Y`
OUT: -0.657

IN: # query: 8OG:A repair function score of entry `E160I`
OUT: -0.0174

IN: # query: 8OG:A repair function score of entry `I421H`
OUT: -0.201

IN: # query: 8OG:A repair function score of entry `Q351C`
OUT: -0.0209

IN: # query: 8OG:A repair function score of entry `T176F`
OUT: -0.157

IN: # query: 8OG:A repair function score of entry `N307V`
OUT: 0.0207

IN: # query: 8OG:A repair function score of entry `R60Y`
OUT: -0.014

IN: # query: 8OG:A repair function score of entry `A135P`
OUT: -0.477

IN: # query: 8OG:A repair function score of entry `L158Y`
OUT: -1.09

IN: # query: 8OG:A repair function score of entry `A212V`
OUT: -0.0975

IN: # query: 8OG:A repair function score of entry `T511Y`
OUT: 0.0102

IN: # query: 8OG:A repair function score of entry `H514N`
OUT: 0.00779

IN: # query: 8OG:A repair function score of entry `E341F`
OUT: -0.0534

IN: # query: 8OG:A repair function score of entry `W321S`
OUT: -0.257

IN: # query: 8OG:A repair function score of entry `A137D`
OUT: -0.219

IN: # query: 8OG:A repair function score of entry `Y428I`
OUT: -1.03

IN: # query: 8OG:A repair function score of entry `T308I`
OUT: -0.0904

IN: # query: 8OG:A repair function score of entry `P338S`
OUT: -0.0346

IN: # query: 8OG:A repair function score of entry `A371R`
OUT: -0.219

IN: # query: 8OG:A repair function score of entry `A354R`
OUT: -0.0437

Numbers sourced from the supplement of paper PMC11908140.
